- assay_text: Pharmacokinetic measurement of chromone (cimifugin in rat plasma after oral chromone extracts)
- Format: in vivo, Sprague-Dawley rats
- condition_description: male, Sprague-Dawley, rat, plasma, po, 4 g crude drug/kg, oral chromone extracts 4 g crude drug/kg for 5 days; plasma HPLC; read-out: Tmax of cimifugin in rat plasma (second peak of double-peak curve)
measure_name: Tmax

What does the record list as Tmax for COc1c2c(cc3oc(CO)cc(=O)c13)O[C@H](C(C)(C)O)C2 [cimifugin] ? 8 h

Data provenance is paper PMC5011688.
